# systemName: SARS-CoV-2 S (SARS-CoV-2, UniProt P0DTC2 1-1208)
# assayName: BLI
quantityKind: pKd
pKd is a log-scale quantity: -log10 of the concentration expressed in molar.

[in] I'd like to know its pKd. The binder in question is CC9.2 Fab (Fab, V domains shown) VH: EVQLVESGGGLVQPGRSLRLSCVAPGFTLGGYGMHWVRQAPGKGLEWVGLISYDGSVQKYGSSVKGRFTISKDNSKNTLYLEMNSLRADDTAVYFCVKGASLGDNWGQGTLVTVSS VL: EIVMTQSPLSLPVTLGQPASISCRSSQSLVYSDGDTYMSWFHQRPGQSPRRLIYKVSNRDFGVPDRFSGSGSGTDFTLKISRVEAEDVGVYYCMQGTHWPYTFGPGTKVEIK
[out] 5.77

[in] I'd like to know its pKd. The binder in question is CC40.8 IgG (antibody, V domains shown) VH: EVQLLESGGGLVQPGGSLRLSCAASGFTFSSYVMTWARQAPGKGLEWVSAISGTGYTYYADSVKGRFTVSRDNSKNTLFLQMSSLRAEDTAVYYCAITMAPVVWGQGTTVTVSS VL: SYELTQPPSVSVSPGQTARITCSGDALPKRYAYWYQQKSGQAPILVIYEDKKRPSGIPERLSGSKSGTVATLTISGAQVEDEADYYCYSTDSSGNHAVFGGGTQLTVL
[out] 9.00
